Data provenance: ChEMBL document CHEMBL1136905

Target: Bile acid receptor (Homo sapiens) (UniProt Q96RI1)
Assay: Agonist activity at human FXR assessed as SRC1 peptide interaction with receptor ligand binding domain by FRET assay relative to GW-4064
Catalogue of %max values
QUANTITY_NAME: %max (%)

                                smiles_code  result_value
0  CC(C)c1onc(COc2ccccc2Cl)c1COc1ccc(/C=C/c2cccc(C(=O)O)c2)c(Cl)c1            82
1  O=C(O)c1cccc(/C=C/c2ccc(OCc3c(-c4c(Cl)cccc4Cl)noc3C3CCCC3)cc2Cl)c1            81
2  CC(C)c1onc(COC(C)(C)C)c1COc1ccc(/C=C/c2cccc(C(=O)O)c2)c(Cl)c1            77
3  CC(C)c1onc(COc2cc(Cl)ccc2Cl)c1COc1ccc(/C=C/c2cccc(C(=O)O)c2)c(Cl)c1            83

###

Catalogue of EC50 values
Molecular target: Bile acid receptor (Homo sapiens, UniProt Q96RI1)
Sequence (Q96RI1 whole entry, the tested form may be a part): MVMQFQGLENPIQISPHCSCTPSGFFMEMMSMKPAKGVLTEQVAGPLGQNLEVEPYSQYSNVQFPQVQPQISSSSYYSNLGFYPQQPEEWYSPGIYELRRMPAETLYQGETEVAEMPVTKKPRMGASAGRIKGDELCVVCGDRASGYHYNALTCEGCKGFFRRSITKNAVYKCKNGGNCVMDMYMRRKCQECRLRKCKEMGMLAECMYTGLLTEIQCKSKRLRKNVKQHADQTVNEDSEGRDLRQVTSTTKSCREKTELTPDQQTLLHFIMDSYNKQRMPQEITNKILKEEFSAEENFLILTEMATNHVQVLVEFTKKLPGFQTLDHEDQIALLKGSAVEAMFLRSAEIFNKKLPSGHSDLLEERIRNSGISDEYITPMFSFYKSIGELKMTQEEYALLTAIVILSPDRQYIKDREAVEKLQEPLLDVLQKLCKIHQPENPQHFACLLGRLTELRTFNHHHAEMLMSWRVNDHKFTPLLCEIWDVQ
Assay: Agonist activity at human FXR assessed as SRC1 peptide interaction with receptor ligand binding domain by FRET assay
QUANTITY_NAME: EC50 (µM)

In [3]: df
Out[3]:
                                   molecule  quantity_name  result_value
0  Cc1cccc(C)c1OCc1noc(C(C)C)c1COc1ccc(/C=C/c2cccc(C(=O)O)c2)c(Cl)c1           EC50         0.017
1  CC(C)c1onc(CNc2c(Cl)cccc2Cl)c1COc1ccc(/C=C/c2cccc(C(=O)O)c2)c(Cl)c1           EC50         0.072
2  CC(C)c1onc(CSc2c(Cl)cccc2Cl)c1COc1ccc(/C=C/c2cccc(C(=O)O)c2)c(Cl)c1           EC50         0.051
3  CC(C)c1onc(Cc2ccccc2)c1COc1ccc(/C=C/c2cccc(C(=O)O)c2)c(Cl)c1           EC50          0.55
4  CC(C)c1onc(COc2c(Cl)cc(Cl)cc2Cl)c1COc1ccc(/C=C/c2cccc(C(=O)O)c2)c(Cl)c1           EC50         0.058
5  CC(C)c1onc(C[S+]([O-])c2c(Cl)cccc2Cl)c1COc1ccc(/C=C/c2cccc(C(=O)O)c2)c(Cl)c1 (stereo unspecified)           EC50         0.028

###

Molecular target: Bile acid receptor (Homo sapiens, UniProt Q96RI1)
Assay: Agonist activity at human FXR assessed as SRC1 peptide interaction with receptor ligand binding domain by FRET assay
Catalogue of EC50 values
QUANTITY_NAME: EC50 (nM)

>>> df
                                    compound  result_value
 0  CC[C@@H](C)c1onc(-c2c(Cl)cccc2Cl)c1COc1ccc(/C=C/c2cccc(C(=O)O)c2)c(Cl)c1           105
 1  CC(C)c1onc(CCCc2ccccc2)c1COc1ccc(/C=C/c2cccc(C(=O)O)c2)c(Cl)c1          4400
 2  CC(C)c1onc(COc2ccc(Cl)c(Cl)c2)c1COc1ccc(/C=C/c2cccc(C(=O)O)c2)c(Cl)c1          1100
 3  CC(C)c1onc(CNc2c(Cl)cncc2Cl)c1COc1ccc(/C=C/c2cccc(C(=O)O)c2)c(Cl)c1           400
 4  CC(C)c1onc(CSc2nnnn2C)c1COc1ccc(/C=C/c2cccc(C(=O)O)c2)c(Cl)c1           930
 5  CC(C)c1onc(CO)c1COc1ccc(/C=C/c2cccc(C(=O)O)c2)c(Cl)c1          7800
 6  CC(C)c1onc(COc2c(Cl)cccc2Cl)c1COc1ccc(/C=C/c2cccc(C(=O)O)c2)c(Cl)c1            78
 7  CC(C)c1onc(CCc2ccccc2)c1COc1ccc(/C=C/c2cccc(C(=O)O)c2)c(Cl)c1           320
 8  CC(C)c1onc(CCc2c(Cl)cccc2Cl)c1COc1ccc(/C=C/c2cccc(C(=O)O)c2)c(Cl)c1           150
 9  CC(C)c1onc(COc2ccc(Cl)cc2)c1COc1ccc(/C=C/c2cccc(C(=O)O)c2)c(Cl)c1           450
10  CC(C)c1onc(-c2c(Cl)cncc2Cl)c1COc1ccc(/C=C/c2cccc(C(=O)O)c2)c(Cl)c1           150
11  CC(C)c1onc([C@H]2C[C@@H]2c2c(Cl)cccc2Cl)c1COc1ccc(/C=C/c2cccc(C(=O)O)c2)c(Cl)c1 (relative stereo)          2000
12  CC(C)c1onc(COc2c(F)cccc2Cl)c1COc1ccc(/C=C/c2cccc(C(=O)O)c2)c(Cl)c1            74
13  CC(C)c1onc(COc2ccc(Cl)cc2Cl)c1COc1ccc(/C=C/c2cccc(C(=O)O)c2)c(Cl)c1           620
14  CC(C)c1onc(COc2c(Cl)cc(F)cc2Cl)c1COc1ccc(/C=C/c2cccc(C(=O)O)c2)c(Cl)c1            87
15  CC(C)c1onc(CS(=O)(=O)c2c(Cl)cccc2Cl)c1COc1ccc(/C=C/c2cccc(C(=O)O)c2)c(Cl)c1           150
16  CC(C)c1onc(COc2cccc(Cl)c2)c1COc1ccc(/C=C/c2cccc(C(=O)O)c2)c(Cl)c1           310
17  CC(C)c1onc(COc2ccccc2)c1COc1ccc(/C=C/c2cccc(C(=O)O)c2)c(Cl)c1          1100
18  CCC(CC)c1onc(-c2c(Cl)cccc2Cl)c1COc1ccc(/C=C/c2cccc(C(=O)O)c2)c(Cl)c1          2200
19  CC(C)c1onc(COc2cccc3ccccc23)c1COc1ccc(/C=C/c2cccc(C(=O)O)c2)c(Cl)c1           960
20  CC(C)c1onc(COC(C)(C)C)c1COc1ccc(/C=C/c2cccc(C(=O)O)c2)c(Cl)c1           660
21  CC(C)c1onc(COc2c(F)cccc2F)c1COc1ccc(/C=C/c2cccc(C(=O)O)c2)c(Cl)c1          2200
22  CC[C@H](C)c1onc(-c2c(Cl)cccc2Cl)c1COc1ccc(/C=C/c2cccc(C(=O)O)c2)c(Cl)c1           190
23  CC(C)c1onc(COc2cccc(Cl)c2Cl)c1COc1ccc(/C=C/c2cccc(C(=O)O)c2)c(Cl)c1           480
24  Cc1cccc(Cl)c1OCc1noc(C(C)C)c1COc1ccc(/C=C/c2cccc(C(=O)O)c2)c(Cl)c1            48
25  CC(C)c1onc(COc2ccccc2Cl)c1COc1ccc(/C=C/c2cccc(C(=O)O)c2)c(Cl)c1           460
26  CC(C)c1onc(COc2cc(Cl)cc(Cl)c2)c1COc1ccc(/C=C/c2cccc(C(=O)O)c2)c(Cl)c1          1100
27  CC(C)c1onc(COc2c(F)cc(F)cc2F)c1COc1ccc(/C=C/c2cccc(C(=O)O)c2)c(Cl)c1           110
28  O=C(O)c1cccc(/C=C/c2ccc(OCc3c(-c4c(Cl)cccc4Cl)noc3C3CCC3)cc2Cl)c1           410
29  CC(C)c1onc(COc2cc(Cl)ccc2Cl)c1COc1ccc(/C=C/c2cccc(C(=O)O)c2)c(Cl)c1          1000
30  Cc1cc(Cl)cc(C)c1OCc1noc(C(C)C)c1COc1ccc(/C=C/c2cccc(C(=O)O)c2)c(Cl)c1           130
31  CC(C)c1onc(COc2ccc3ccccc3c2)c1COc1ccc(/C=C/c2cccc(C(=O)O)c2)c(Cl)c1           930
32  O=C(O)c1cccc(/C=C/c2ccc(OCc3c(-c4c(Cl)cccc4Cl)noc3C3CCCC3)cc2Cl)c1           560
